System: U251 CNS
Experiment: NCI-60 one-dose screen, 48 h
Conditions: 10 µM unless noted
This is part of a sample that, as a whole, favours compounds with a hit. Of some 83,000 tested, about 20% had one in any assay. Active and inactive are the calls of the source. The calls were made as follows: active = growth percent below 10; inactive = the rest.
Possible outcomes: active, inactive

STRUCTURE NOTATION	GROUP
O=C1Nc2ccccc2C1(c1c[nH]c2ccccc12)c1c[nH]c2ccccc12	inactive
C[C@@H]1O[C@@H](O[C@@H]2C[C@H](c3ccc4c(c3O)C(=O)C3=C(C4=O)[C@@]4(O)C(=O)C[C@](C)(O)C[C@@]4(O)C=C3)O[C@H](C)[C@H]2O)CC[C@@H]1O[C@H]1C[C@@H](O)[C@H](O)[C@@H](C)O1	inactive
CN1CCN(C(=S)SCCCCOc2cc(=O)oc3ccccc23)CC1	inactive
CCN(CC)Cc1cc(Nc2ccnc3cc(Cl)ccc23)ccc1O	inactive
CCCCC#Cc1c(I)n(C)c(=O)[nH]c1=O	active
Cc1c2ccncc2c(C)c2c1c1cc(CO)ccc1n2C	active
C=C(C)[C@@H]1CCC[C@]2(C(=O)N3CCN(C)CC3)CC[C@]3(C)[C@@H](CC[C@@H]4[C@@]5(C)CC/C(=N\NC(=O)c6ccncc6)C(C)(C)[C@@H]5CC[C@]43C)[C@@H]12	inactive
O=C1c2cccc3cccc(c23)C(=O)N1C/C=C/c1ccc2c3c(cccc13)C(=O)N(CCO)C2=O	inactive
